# System: SK-MEL-2 melanoma
# test_details: NCI tumour cell line growth inhibition, 48 h; in the data active = GI50 below about 0.43 µM; inactive = the rest
Write down one outcome, taken from True (active), False (inactive)

Completed entries (count: 2):
structure_smiles	category_label
COc1ccc(CCNc2nc3ccccc3c3[nH]c4ccccc4c23)cc1OC	False
CCOC(=O)c1cnc2ccc(Cl)cc2c1NCCCN(C)C	False

Lab note: next molecule to report on.
Req: Status in this test for CC[C@]1(O)C[C@@H]2CN(Cc3c([nH]c4ccccc34)[C@@](C(=O)OC)(c3cc4c(cc3OC)N(C)[C@H]3[C@@](O)(C(=O)OC)[C@H](OC(C)=O)[C@]5(CC)[C@@H]6C[C@@H]6CN6CC[C@]43[C@@H]65)C2)C1 ?
Resp: True

---

# Tested on: OVCAR-4 ovarian
# test_details: NCI tumour cell line growth inhibition, 48 h; in the data active = GI50 below about 0.43 µM; inactive = the rest
Allowed answers: 1 (yes) = active, 0 (no) = inactive

Req: State the result this test recorded for CC(C)Oc1cc(OCC(=O)O)cc(C(=O)N(CCC(N)=O)C(=O)Nc2ccc(C(=O)O)cc2OC(C)C)c1 .
Resp: 0 (no)

Req: Given Cc1ccc(CCC(=O)Nc2ncc(Cc3cc(Cl)ccc3Cl)s2)o1 , state the outcome it received in this test.
Resp: 0 (no)

Req: Short answer needed: outcome of this test for C(=N\Nc1ncc(-c2cc3cc4c(cc3o2)OCO4)s1)/c1c[nH]c2ccccc12 ?
Resp: 0 (no)

Req: Given Cc1cc(O)c2c(c1)C[C@@H](O)C1=C2C(=O)c2c(O)ccc(OC3CC(O)C(OC4CC(OC5CCC(OC6CC(O)C(OC7CC(OC8CCC(O)C(C)O8)C(O)C(C)O7)C(C)O6)C(C)O5)C(O)C(C)O4)C(C)O3)c2C1=O (some centres undefined) , state the outcome it received in this test.
Resp: 1 (yes)

---

TGI values by entry
# System: 786-0 renal
# test_details: NCI tumour cell line growth inhibition, 48 h

Here is how some compounds turned out for TGI.
compound	TGI
Cc1ccccc1N=C(N)NC#N	> 100 µM
NNC(=O)CC(=O)Nc1ccc(Cl)cc1	> 100 µM
O=C1COC(c2ccccc2O)=NN1CCCN1CCCC1	> 100 µM
CN(NC(=O)/C(=C/c1ccc(O)cc1)NC(=O)c1ccccc1)c1ccnc2cc(Cl)ccc12	35.8 µM
CCCC1NC(C#N)(C#N)C(CCC)NC1(C#N)C#N (configuration not stated)	> 33.5 µM
COc1ccccc1/C=C1\COc2ccc(O)c(O)c2C1=O	6.72 µM
CC(=O)O[C@@H]1C=CC(=O)C2(CC(=O)O[C@@H]2/C=C(\C)CCC=C(C)C)C1 (some centres not stated)	2.26 µM
CSc1nc2ccccc2c(=O)n1/N=C1\C(=O)N(CN2CCOCC2)c2ccc(Cl)cc21	> 100 µM

Req: Short answer please: TGI, 786-0 renal, entry [O-][n+]1onc2c3nn(-c4ccccc4)nc3ccc21
Resp: > 100 µM

Req: API: value(readout= TGI, system= 786-0 renal, query= CCCCN(CCCC)C(=Nc1ccccc1)N(CCCC)CCCC )
Resp: 15.2 µM

---

# Tested on: OVCAR-5 ovarian
# test_details: NCI tumour cell line growth inhibition, 48 h; in the data active = GI50 below about 0.43 µM; inactive = the rest
Pick one and only one: label 1 for active, label 0 for inactive

Req: Please share the test call associated with CCCCc1ccc2nc(NC(=O)OC)[nH]c2c1 .
Resp: label 0

Req: Call for entry COc1cc(-c2cc(-c3ccc(N(C)C)cc3)nc(N3CCC(O)CC3)c2C#N)cc(OC)c1OC :
Resp: label 0

Req: // return assay outcome for C#Cc1cccc(NC(=O)Nc2ccccc2NC(=O)CCl)c1
Resp: label 0

Req: Identify the outcome logged in this assay for the molecule shown: COc1ccc(C(=O)c2cc3c(N)c(C(=O)Nc4cccc(Cl)c4)sc3nc2C)cc1
Resp: label 0

Req: Assay outcome for O=C1CCC/C=C\C[C@H]2C=C(Cl)C(=O)/C2=C/C[C@H](CCCCC(F)(F)F)OC(=O)CCC/C=C\C[C@H]2C=C(Cl)C(=O)/C2=C/C[C@H](CCCCC(F)(F)F)O1 : what was it?
Resp: label 1

Req: Call for entry Cc1cc2c(-c3nc4ccccc4[nH]3)c(O)c(O)cc2c(O)c1-c1c(C)cc2c(-c3nc4ccccc4[nH]3)c(O)c(O)cc2c1O :
Resp: label 1

---

# System: IGROV1 ovarian
# test_details: NCI tumour cell line growth inhibition, 48 h
Attribute: TGI

molecule	TGI
O=C(CCCCCCc1nc2ccc(Br)cc2[nH]1)NO	2.45 µM

Req: Data request, read-out TGI, for C=CCNC1=C2C[C@@H](C)C[C@@H](OC)C(OC(=O)CCCN(C)C)[C@H](C)/C=C(\C)[C@@H](OC(N)=O)[C@H](OC)/C=C\C=C(/C)C(=O)NC(=CC1=O)C2=O (some centres undefined)
Resp: 21.7 µM

Req: Give the measured TGI of CCc1ccc(Cc2ccc(CC)c(NC(=O)C(=O)Cc3nc4ccccc4nc3C)c2CC)c(CC)c1NC(=O)C(=O)Cc1nc2ccccc2nc1C .
Resp: > 100 µM

Req: Give its TGI value. Item: Nn1c(Cc2ccc(Cl)cc2)n[nH]c1=O
Resp: > 100 µM

Req: Request the reported TGI associated with CC1=NN(c2cccc(Cl)c2)C2(C1)C(Cl)C(=O)N2c1nc2ccccc2s1 (centres undefined)
Resp: > 100 µM

Req: Endpoint output: TGI of CCCCNC(=S)Nn1c(-c2ccccc2)nc2ccccc2c1=O . Value?
Resp: > 100 µM

---

Known TGI of a selection of molecules
# Tested on: HOP-92 NSCLC
# test_details: NCI tumour cell line growth inhibition, 48 h

Some solved cases for reference:
>>> print(df.to_string())
                                   molecule    result
0               CCNC(=S)N/N=C/c1cc(OC)ccc1O  > 100 µM
1  Cc1cc2c(cc1-c1cc3c(cc1C)C(C(C)C)=C(O)C(=O)/C3=C\Nc1nc(-c3ccccc3)cs1)/C(=C/Nc1nc(-c3ccccc3)cs1)C(=O)C(O)=C2C(C)C   55.7 µM
2    COCn1c2ccc(OC(C)=O)cc2c2c(=O)oc(C)nc21  > 100 µM
3  CC(C)c1ccc2c(c1)CCC1C(C)(C)[C@@H](O)CC[C@]21C (some centres undefined)   52.8 µM
4                       Cc1ccccc1N=C(N)NC#N  > 100 µM

Req: Request: TGI, test system HOP-92 NSCLC, entry CCc1ccc(Cc2ccc(CC)c(NC(=O)C(=O)Cc3nc4ccccc4nc3C)c2CC)c(CC)c1NC(=O)C(=O)Cc1nc2ccccc2nc1C
Resp: 43 µM

Req: Form: Entry = C=CCOc1ccc(C2c3c([nH][nH]c3=O)CC(O)(OCC)C2C(=O)OCC)cc1OC (centres undefined) | System = HOP-92 NSCLC | TGI = ____
Resp: > 100 µM

Req: Which measured TGI belongs to Cc1ccc(S(=O)(=O)NC(=O)NC(Cc2c[nH]c3ccccc23)C(=O)O)cc1 (centres undefined) , tested on HOP-92 NSCLC?
Resp: > 100 µM

Req: Notebook entry, HOP-92 NSCLC assay: TGI of CCOC(=O)C1=CN=C2C(=O)N(c3ccccc3)N(C)C2(C)C1=N (centres undefined) = ?
Resp: > 100 µM

---

# System: KM20L2 colon
# test_details: NCI tumour cell line growth inhibition, 48 h
The entries below come with measured TGI values attached.
Report as a plain number; the unit µM is understood.

In [3]: df
Out[3]:
                                   compound  unit_text  result_number
0  CCOC(=O)C(C(=O)c1ccccc1-c1ccccc1C(=O)O)=P(c1ccccc1)(c1ccccc1)c1ccccc1         µM           59.5

Req: GET /values?readout=TGI&item= CCc1nc2ccccc2c(=O)n1/N=C(\N=Nc1ccc(Cl)cc1)c1ccc(N(C)C)cc1
Resp: 69.9

Req: Which value of TGI has been reported for C=C1C(=O)OC2C1C(OC(=O)/C(=C/C)COC(C)=O)CC1(CO1)C1C(OC(=O)/C(=C/C)CO)C=C(C)C21 (stereo not given) in the records?
Resp: 11.2

---

Quick list: TGI per entry.
# Test system: NCI-H23 lung
# test_details: NCI tumour cell line growth inhibition, 48 h

For orientation, consider the following solved cases.
compound	TGI
C1=C[C@@H]2c3ccc4cnccc4c3NC[C@@H]2C1	> 100 µM
CCCOC(=O)C1CCC(=O)N1C(=O)C(Cl)Cl (stereo not given)	> 100 µM

Req: Tell me the measured TGI of CCOC(=O)C1=CN=C2C(=O)N(c3ccccc3)N(C)C2(C)C1=N (stereo not given) , please.
Resp: > 100 µM

Req: Fill in: TGI of C(=N\Nc1ncc(-c2cc3cc4c(cc3o2)OCO4)s1)/c1c[nH]c2ccccc12 is ___
Resp: 5.19 µM

Req: Record request: TGI value, item Nc1ccc2c(c1)C1Oc3ccccc3CC1CO2 (stereo not given)
Resp: > 100 µM

Req: Please look up its TGI: C=C1C(=O)O[C@@H]2[C@@H]3O[C@@](C)(CC/C=C(\C)CCC[C@@H]2C)[C@H](O)C[C@@H]13
Resp: 16.5 µM

Req: Which TGI is listed for CC(=O)N1N=C(c2c(O)ccc3ccccc23)CC1C(=O)c1ccco1 (stereo not given) ?
Resp: 84.6 µM

Req: Request the reported TGI associated with CCc1nc2ccccc2c(=O)n1/N=C(\N=Nc1ccc(Cl)cc1)c1ccc(N(C)C)cc1
Resp: 92.4 µM

Data origin, for the record: PubChem BioAssay (NCI)
